system: LOU-NH91; test: relative viability (nuclei count vs DMSO), 5 days (fraction); higher = more cells survive; conditions: first compound 0.8 µM
TEST READOUT: relative viability
Output spec: single numeric token, no unit.

Recorded relative viability, per entry:
| COMPOUND | TARGET DESC | TEST READOUT | ASSAY RESULT |
| --- | --- | --- | --- |
| O=c1cc(-c2cccc3c2Sc2ccccc2S3)oc(N2CCOCC2)c1 + CCNC(=O)c1noc(-c2cc(C(C)C)c(O)cc2O)c1-c1ccc(CN2CCOCC2)cc1 [Luminespib] (partner 0.01 µM) | LOU-NH91 | relative viability | 0.339 |
| O=c1cc(-c2cccc3c2Sc2ccccc2S3)oc(N2CCOCC2)c1 + Cc1nc(Nc2ncc(C(=O)Nc3c(C)cccc3Cl)s2)cc(N2CCN(CCO)CC2)n1 [Dasatinib] (partner 0.075 µM) | LOU-NH91 | relative viability | 0.523 |

Could you share what relative viability was measured for COc1nc(C)cnc1NS(=O)(=O)c1cccnc1-c1ccc(-c2nnco2)cc1 [Zibotentan] + CS(=O)(=O)N1CCN(Cc2cc3nc(-c4cccc5[nH]ncc45)nc(N4CCOCC4)c3s2)CC1 [Pictilisib] (partner 1 µM) , tested on LOU-NH91? 0.515
